Where do these numbers come from? They come from patent US10160762B2.

Each entry below carries its recorded Ki.
Target: human PDE2A1 (Homo sapiens)
Construct: GST; purchased BPS Bioscience (San Diego, Calif.) 60020; host or cells: insect cells
Sequence (O00408 1-920 isoform O00408-2): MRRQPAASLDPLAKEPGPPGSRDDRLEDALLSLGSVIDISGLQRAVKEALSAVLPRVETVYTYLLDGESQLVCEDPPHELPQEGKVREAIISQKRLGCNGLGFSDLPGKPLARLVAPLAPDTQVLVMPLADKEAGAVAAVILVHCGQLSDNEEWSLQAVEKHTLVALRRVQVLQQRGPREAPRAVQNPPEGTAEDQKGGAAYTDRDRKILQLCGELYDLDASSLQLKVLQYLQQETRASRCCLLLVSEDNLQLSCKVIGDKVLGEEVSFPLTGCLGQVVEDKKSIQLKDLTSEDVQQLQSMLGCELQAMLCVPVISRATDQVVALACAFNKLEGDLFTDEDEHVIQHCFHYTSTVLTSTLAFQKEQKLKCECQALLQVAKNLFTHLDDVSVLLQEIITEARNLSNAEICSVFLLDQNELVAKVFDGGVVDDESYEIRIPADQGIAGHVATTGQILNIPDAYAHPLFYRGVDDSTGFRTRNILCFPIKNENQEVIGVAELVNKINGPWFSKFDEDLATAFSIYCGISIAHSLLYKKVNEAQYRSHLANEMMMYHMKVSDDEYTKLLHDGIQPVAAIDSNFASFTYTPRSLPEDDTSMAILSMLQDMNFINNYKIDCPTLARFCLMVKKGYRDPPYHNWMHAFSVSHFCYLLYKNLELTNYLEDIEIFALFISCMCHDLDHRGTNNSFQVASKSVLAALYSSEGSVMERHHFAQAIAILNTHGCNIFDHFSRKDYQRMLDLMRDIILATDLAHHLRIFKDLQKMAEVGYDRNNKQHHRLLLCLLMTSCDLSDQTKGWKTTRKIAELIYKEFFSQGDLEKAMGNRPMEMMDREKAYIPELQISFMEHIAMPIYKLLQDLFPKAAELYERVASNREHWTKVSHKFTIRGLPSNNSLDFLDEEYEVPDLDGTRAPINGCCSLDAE
Assay: IMAP FP PDE assay, human PDE2A1
Format: biochemical
Conditions: Lab B; read-out: Human PDE2 Ki (nM) Lab B
Measurement name: Ki

>>> meas_value("COc1cccc(Cc2nc3c(c(C#N)nn3C(C)c3ccc(C(F)(F)F)cc3)c(=O)[nH]2)c1 (single isomer, unassigned) [Example 349]")
"373 nM"
>>> meas_value("Cc1nc2c(c(-c3ccco3)nn2C(C)c2ccc(C(F)(F)F)cc2)c(=O)[nH]1 (single isomer, unassigned) [Example 75]")
"203 nM"
>>> meas_value("COCC(c1ccc(C(F)(F)F)cc1)n1nc(C(F)F)c2c(=O)[nH]c(C)nc21 (single isomer, unassigned) [Example 174]")
"278 nM"
